Source of measurements: the pKa sets of Baltruschat and Czodrowski (2020)

- particulars: basic group
measured_metric: pKa

Record excerpt, results attached:
compound: Nc1ncnc2scnc12
reported_value: 2.77
//
compound: COCCNc1ccc(Cl)cc1
reported_value: 3.3
//
compound: Cc1ccc(/N=N/c2ccc(N(C)C)cc2)cc1C
reported_value: 2.37
//
compound: C[C@H](N)Cc1ccc(O)cc1
reported_value: 9.3
//
compound: CCCCC(N)C(=O)[O-] (configuration not stated)
reported_value: 9.89
//
compound: CCc1ccnc2c1ccc1cccnc12
reported_value: 5.44

# pKa lookup, item CCN(CC)Cc1cc([N+](=O)[O-])ccc1[O-]
11

# pKa lookup, item C[NH2+]CCNCC[NH3+]
4.64

---

- particulars: basic group
measured_metric: pKa
The answer should be written as a number, with no unit following it.

Record excerpt, results attached:
compound: Nc1cccc2ccncc12
pKa: 6.06

compound: C=CC(=O)OCCN(C)C
pKa: 7.9

compound: CCCN(CCC)c1ccccc1
pKa: 6.13

compound: CN1CC[C@@]23c4c5ccc(O)c4O[C@]2(C)C(=O)CC[C@@H]3[C@@H]1C5
pKa: 8.08

compound: CC(C)c1ccncc1
pKa: 6.02

// moving on: another record for pKa
# pKa lookup, item CC1CNCc2ccccc2OCCOc2ccccc2C[NH2+]1 (stereo unspecified)
6.01

---

Recorded pKa, one value per entry.
- particulars: acidic group
The answer should be written as a number, with no unit following it.

Record excerpt, results attached:
compound: COc1cc[n+](O)cc1
measured_metric: pKa
reported_value: 2.05
//
compound: Oc1ccc(O)c(Br)c1
measured_metric: pKa
reported_value: 8.67
//
compound: Cc1nc(C(=O)[O-])ccc1O
measured_metric: pKa
reported_value: 9.49

# pKa lookup, item CCC1(C2=CCCCC2)C(=O)NC(=S)NC1=O
7.12

# pKa lookup, item Oc1cccc2c1CCCC2
10.5

# pKa lookup, item O=C([O-])[C@@H](NCC[NH2+][C@@H](C(=O)[O-])c1ccccc1[O-])c1ccccc1O
10.8

# pKa lookup, item Nc1ncnc2c1ncn2CCOCP(=O)([O-])O
7

# pKa lookup, item OC(c1ccccc1)c1ccccn1 (stereo not drawn)
12.8

---

- particulars: acidic group
measured_metric: pKa
The answer should be written as a number, with no unit following it.

molecule: CC(C(=O)O)C(C#N)c1ccccc1 (stereo unspecified)
measured_metric: pKa
reported_value: 3.7
//
molecule: CC(c1cccc(F)c1)[N+](=O)[O-] (stereo unspecified)
measured_metric: pKa
reported_value: 7.05
//
molecule: CC1(C)CCC(=O)N1O
measured_metric: pKa
reported_value: 8.7
//
molecule: CCCCCCCCCCc1c(-c2ccccc2)n[nH]c1O
measured_metric: pKa
reported_value: 11
//
molecule: O=C(O[C@H]1O[C@@H](C(=O)O)[C@H](O)[C@@H](O)[C@@H]1O)c1ccccc1
measured_metric: pKa
reported_value: 2.85

# pKa lookup, item O=[N+]([O-])c1cccc(O)c1O
6.64

# pKa lookup, item C[n+]1ccn(CCC[n+]2ccc(/C=N/O)cc2)c1
8.05

# pKa lookup, item O=C1C=CC(=NO)C=C1
6.36

# pKa lookup, item N#CC(C#N)=NNc1ccc(Cl)cc1
6.15

# pKa lookup, item C[NH+](C)CCc1nnn[nH]1
4.59

# pKa lookup, item C[NH+](C)Cc1cc(C(C)(C)C)cc(C[NH+](C)C)c1O
6.3

# pKa lookup, item O=C1CCC(=O)N1O
6.04

# pKa lookup, item CC(C)C1C(=O)c2ccccc2C1=O
7.4

# pKa lookup, item O=S(=O)(Cc1ccccc1)c1ncc[nH]1
8.67

# pKa lookup, item CCC1=CC(=O)C=C(CC)C1=NO
8.34

# pKa lookup, item Cc1[nH]ccc1C(=O)O
5.8

---

- particulars: basic group
pKa vs 6: at or above is yes, below is no.

compound: CN(C)CCN(C)C
class_assignment: yes

compound: Cc1nc(C)nc(N)n1
class_assignment: no

compound: COc1ccc(CCN)cc1
class_assignment: yes

compound: CC(C)N1C[Si](C)(C)O[Si](C)(C)C1
class_assignment: yes

compound: [O-]c1ccnc2ccccc12
class_assignment: yes

Could you verify whether the entry CCCCCCn1ccnc1 shows pKa of no less than 6?
yes

Could you verify whether the entry CC(c1ccccc1)N1CC(O[Si](C)(C)C)C1 (stereo not given) shows pKa of no less than 6?
yes

Could you verify whether the entry CCN(CC)CCCC(C)Nc1ccnc2ccccc12 (stereo not given) shows pKa of no less than 6?
yes

Could you verify whether the entry O=C([O-])CNCCc1nnn[n-]1 shows pKa of no less than 6?
yes

Could you verify whether the entry C#CC(C)(C)NC(C)(C)C=C shows pKa of no less than 6?
yes

Could you verify whether the entry Nc1cnccn1 shows pKa of no less than 6?
no

Could you verify whether the entry Oc1cncnc1 shows pKa of no less than 6?
no

Could you verify whether the entry c1ccc2c(c1)CNCCCNCc1ccccc1OCCCO2 shows pKa of no less than 6?
yes

Could you verify whether the entry CCN(CC)CCNc1cc(C)nc(N)n1 shows pKa of no less than 6?
yes

---

- particulars: acidic group
Entries are sorted into classes by pKa as follows: one: < 5; two: ≥ 5 and < 9; three: ≥ 9

molecule: Cc1cc(C)c(C(C)C)cc1O
class_assignment: three

# input for lookup
Class for CCC[n+]1cccc2cc(O)ccc21 ?
two

---

- particulars: basic group
measured_metric: pKa
The answer should be written as a number, with no unit following it.

molecule: C=C1[C@@H]2CC3C4N5C[C@]6(C)C[C@@H](OC(C)=O)[C@H](OC(C)=O)[C@]47C6[C@@H]5C[C@]3([C@H]1OC(C)=O)[C@@]7(O)C2
reported_value: 8.35
//
molecule: Nc1c([N+](=O)[O-])ccc2ccccc12
reported_value: -1.6
//
molecule: N=C(c1ccccc1)c1cccc(O)c1
reported_value: 6.92
//
molecule: CN1C[C@@H](CO)C[C@H]2c3cccc4[nH]cc(c34)C[C@@H]21
reported_value: 8.3
//
molecule: C1OC1CN(CC1CO1)CC1CO1 (stereo unspecified)
reported_value: 5.01

# pKa lookup, item NCc1ccc(N)cc1
10

---

- particulars: basic group
pKa vs 7: at or above is yes (1), below is no (0).

Consider the worked cases shown below.
compound: CN(C)c1ccc2cc3ccc(N(C)C)cc3nc2c1
class_assignment: yes (1)

compound: CCCCN1CCCC1C (centres undefined)
class_assignment: yes (1)

compound: NCC[NH2+]CCCO
class_assignment: no (0)

# input for lookup
Could you verify whether the entry C[NH2+]CCNCCN shows pKa of no less than 7?
yes (1)

---

- particulars: basic group
pKa vs 7: at or above is Yes, below is No.

Consider the worked cases shown below.
compound: [O-]c1[nH+]cncc1O
class_assignment: No

compound: Nc1ncnc(N)c1N
class_assignment: No

compound: COc1cc(S(C)=O)ccc1-c1nc2ncncc2[nH]1 (stereo unspecified)
class_assignment: No

compound: c1c(CN2CCNCCNCC2)n[nH]c1CN1CCNCCNCC1
class_assignment: Yes

compound: O=P([O-])([O-])C(NCc1cccnc1)c1ccccc1[O-] (stereo unspecified)
class_assignment: Yes

Could you verify whether the entry CCC(=O)OCCN(C)C shows pKa of no less than 7?
Yes

Could you verify whether the entry CNNC1CC[NH+](C(C)C)CC1 shows pKa of no less than 7?
No

Could you verify whether the entry CCCC(=O)OC(C)CN(C)C (stereo unspecified) shows pKa of no less than 7?
Yes

Could you verify whether the entry COc1ccc(F)cc1C(=O)N[C@@H]1C[C@H]2CC[C@@H](C1)N2Cc1ccccc1 shows pKa of no less than 7?
Yes

Could you verify whether the entry c1ccc2c(c1)cnc1ccccc12 shows pKa of no less than 7?
No

Could you verify whether the entry Cc1ccc2c(c1)CCN2 shows pKa of no less than 7?
No

---

- particulars: acidic group
Recorded pKa, one value per entry.
The answer should be written as a number, with no unit following it.

Record excerpt, results attached:
compound: CC(=O)C(C)C(C)=O
pKa: 10.8
//
compound: CC1(C)CC(=O)C(=NO)C(=O)C1
pKa: 5.4
//
compound: O=C(O)CCCc1c[nH]c2ccccc12
pKa: 4.82

# pKa lookup, item Cc1c(Cl)cc2nnn(O)c2c1[N+](=O)[O-]
3.21

# pKa lookup, item NS(=O)(=O)c1ccc(F)cc1
9.34

# pKa lookup, item COc1ccc(O)cc1Br
9.09

# pKa lookup, item O=C(CC(=O)C(F)(F)F)c1cccs1
6.31

# pKa lookup, item O=C1CCC([O-])=C1O
12.9

# pKa lookup, item Nc1cc[nH+]c2c(O)cccc12
6.91

# pKa lookup, item Cc1cccc(O)c1C(=O)Oc1ccccc1
8.63
